Target: AXOR109 (Homo sapiens, UniProt Q8TDU6)
Sequence (Q8TDU6 1-330): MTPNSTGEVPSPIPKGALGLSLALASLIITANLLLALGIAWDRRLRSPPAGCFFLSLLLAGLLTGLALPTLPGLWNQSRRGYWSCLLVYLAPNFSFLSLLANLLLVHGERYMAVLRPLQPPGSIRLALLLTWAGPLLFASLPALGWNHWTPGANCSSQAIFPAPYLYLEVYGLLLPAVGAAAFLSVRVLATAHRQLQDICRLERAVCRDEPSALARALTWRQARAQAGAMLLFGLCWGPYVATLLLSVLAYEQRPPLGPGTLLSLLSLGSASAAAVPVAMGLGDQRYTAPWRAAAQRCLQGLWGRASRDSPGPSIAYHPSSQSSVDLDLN
Assay: Human AXOR109/Melanophore Assay
Conditions: melanophore assay, AXOR109 transfected melanophores
pEC50: −log10 of the molar value.
Kindly supply the reported pEC50 values for the records listed here.

Q: Find pEC50 for CCCN([C@@H]1CCN(S(=O)(=O)c2ccc(OC)c(OC)c2)C1)S(=O)(=O)c1ccc(OC)c(OC)c1 [Example 59] on AXOR109 (Homo sapiens, UniProt Q8TDU6) and write it down.
A: 6.00 to 6.90

Q: Find pEC50 for COc1ccc(S(=O)(=O)N2C[C@H](C)N(S(=O)(=O)c3cccc4cccnc34)C[C@@H]2C)cc1OC [Example 69] on AXOR109 (Homo sapiens, UniProt Q8TDU6) and write it down.
A: 5.00 to 5.90

Q: Find pEC50 for COc1ccc(S(=O)(=O)NCCN(C)S(=O)(=O)c2ccc(OC)c(OC)c2)cc1OC [Example 42] on AXOR109 (Homo sapiens, UniProt Q8TDU6) and write it down.
A: 5.00 to 5.90

Q: Find pEC50 for COc1ccc(S(=O)(=O)N2C[C@H](C)N(S(=O)(=O)c3ccc(OC)c(OC)c3)C[C@@H]2C)cc1 [Example 72] on AXOR109 (Homo sapiens, UniProt Q8TDU6) and write it down.
A: 6.00 to 6.90

Q: Find pEC50 for COc1ccc(S(=O)(=O)N2CCC(NS(=O)(=O)c3cccc4cccnc34)C2)cc1OC (stereo not shown) [Example 16] on AXOR109 (Homo sapiens, UniProt Q8TDU6) and write it down.
A: 5.00 to 5.90

Q: Find pEC50 for COc1ccc(S(=O)(=O)N2CCN(S(=O)(=O)c3ccc(OC)c(OC)c3)C(C3CCCCC3)C2)cc1OC (stereo not shown) [Example 24] on AXOR109 (Homo sapiens, UniProt Q8TDU6) and write it down.
A: 5.00 to 5.90

Q: Find pEC50 for CCN(C[C@H](C)N(CC)S(=O)(=O)c1ccc(OC)c(OC)c1)S(=O)(=O)c1ccc(OC)c(OC)c1 [Example 74] on AXOR109 (Homo sapiens, UniProt Q8TDU6) and write it down.
A: 6.00 to 6.90

###

target: AXOR109 (Homo sapiens); construct: expressed in transfected cells; host or cells: melanophore cells, transfected by electroporation; assay: Human AXOR109/Melanophore Assay; assay type: cell-based; settings: 1 h, melanophore assay, normalized to alpha-MSH system max
Kindly supply the reported Emax values for the records listed here.

Q: Consider the molecule CCCN(C1CCN(S(=O)(=O)c2ccc(OC)c(OC)c2)C1)S(=O)(=O)c1ccc(OC)c(OC)c1 (stereo not drawn) and give its recorded Emax.
A: 0 to 50%

Q: Consider the molecule COc1ccc(S(=O)(=O)N2C[C@@H]3C[C@H]2CN3S(=O)(=O)c2ccc(OC)c(OC)c2)cc1OC and give its recorded Emax.
A: 76 to 100%

Q: Consider the molecule COc1cccc(S(=O)(=O)N(C)CCN(C)S(=O)(=O)c2ccc(OC)c(OC)c2)c1 and give its recorded Emax.
A: 76 to 100%

Q: Consider the molecule COc1ccc(S(=O)(=O)N2[C@H](C)CN(S(=O)(=O)c3ccc(OC)c(OC)c3)C[C@@H]2C)cc1O and give its recorded Emax.
A: 51 to 75%

Q: Consider the molecule COc1ccc(S(=O)(=O)N2CCCN(S(=O)(=O)c3ccc(OC)c(OC)c3)CC2)cc1OC and give its recorded Emax.
A: 51 to 75%

Q: Consider the molecule CCCN([C@@H]1CCN(S(=O)(=O)c2ccc(OC)c(OC)c2)C1)S(=O)(=O)c1ccc(OC)c(OC)c1 and give its recorded Emax.
A: 76 to 100%

Q: Consider the molecule CCN(C[C@@H]1CCCN1S(=O)(=O)c1ccc(OC)c(OC)c1)S(=O)(=O)c1ccc(OC)c(OC)c1 and give its recorded Emax.
A: 76 to 100%

Q: Consider the molecule CCCN([C@H]1CCN(S(=O)(=O)c2ccc(OC)c(OC)c2)C1)S(=O)(=O)c1ccc(OC)c(OC)c1 and give its recorded Emax.
A: 76 to 100%

Q: Consider the molecule COc1ccc(S(=O)(=O)N2CCN(S(=O)(=O)c3ccc(OC)c(OC)c3)CC(F)C2)cc1OC and give its recorded Emax.
A: 76 to 100%

Q: Consider the molecule COc1ccc(S(=O)(=O)N2CCN(S(=O)(=O)c3ccc(OC)c(OC)c3)CC(=O)C2)cc1OC and give its recorded Emax.
A: 76 to 100%

Q: Consider the molecule CC=CCN(CCN(C)S(=O)(=O)c1ccc(OC)c(OC)c1)S(=O)(=O)c1ccc(OC)c(OC)c1 and give its recorded Emax.
A: 76 to 100%

Q: Consider the molecule COc1ccc(S(=O)(=O)NCC(C)N(C)S(=O)(=O)c2ccc(OC)c(OC)c2)cc1OC (stereo not drawn) and give its recorded Emax.
A: 51 to 75%

Q: Consider the molecule COc1ccc(S(=O)(=O)N2CCN(S(=O)(=O)c3ccc(OC)c(OC)c3)C(C)(C)C2)cc1OC and give its recorded Emax.
A: 76 to 100%

Q: Consider the molecule CC[C@@H]1CN(S(=O)(=O)c2ccc(OC)c(OC)c2)[C@@H](CC)CN1S(=O)(=O)c1ccc(OC)c(OC)c1 and give its recorded Emax.
A: 76 to 100%

Q: Consider the molecule COc1ccc(S(=O)(=O)N(C)CCN(C)S(=O)(=O)c2ccc3c(c2)OCCN3C)cc1OC and give its recorded Emax.
A: 76 to 100%

Q: Consider the molecule COc1ccc(S(=O)(=O)N2CCN(S(=O)(=O)c3ccc(C)cc3OC)CC2)cc1OC and give its recorded Emax.
A: 51 to 75%

Q: Consider the molecule CCN(CCN(C1CC1)S(=O)(=O)c1ccc(OC)c(OC)c1)S(=O)(=O)c1ccc(OC)c(OC)c1 and give its recorded Emax.
A: 51 to 75%

Q: Consider the molecule CCN(C[C@H](C)N(CC)S(=O)(=O)c1ccc(OC)c(OC)c1)S(=O)(=O)c1ccc(OC)c(OC)c1 and give its recorded Emax.
A: 76 to 100%

Each recorded value in this set is attributed to patent US20090069302A1.
